Numbers sourced from patent US20230233569A1.

Listed here: items and their measured IC50.
# target: KRAS G12C (Homo sapiens, UniProt P01116+P62937, G12C)
# Sequence (P01116 1-169 isoform P01116-2 G12C limits assumed): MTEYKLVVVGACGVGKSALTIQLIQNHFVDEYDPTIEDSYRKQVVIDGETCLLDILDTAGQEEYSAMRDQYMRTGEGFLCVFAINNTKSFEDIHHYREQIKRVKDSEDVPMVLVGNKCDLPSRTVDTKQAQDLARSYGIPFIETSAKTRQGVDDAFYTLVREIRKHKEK
# Sequence (P62937 whole entry): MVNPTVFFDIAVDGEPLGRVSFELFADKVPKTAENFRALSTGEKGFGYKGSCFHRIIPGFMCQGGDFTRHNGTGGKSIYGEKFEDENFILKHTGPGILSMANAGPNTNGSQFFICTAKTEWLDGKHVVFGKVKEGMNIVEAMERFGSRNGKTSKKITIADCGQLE
# assay.comment: Ras-Raf disruption / FRET / MOA assay (BRAF RBD)
# Format: biochemical
# setup.conditions: Ras-Raf disruption, with Cyclophilin A; read-out: KRAS G12C FRET data IC50

| compound | observed |
| --- | --- |
| CCn1c(-c2cccnc2[C@H](C)OC)c2c3cc(ccc31)-c1cc(O)cc(c1)C[C@H](NC(=O)[C@H](C(C)C)N(C)C(=O)[C@H]1CCN(S(=O)(=O)[C@H]3CN3C)C1)C(=O)N1CCC[C@H](N1)C(=O)OCC(C)(C)C2 (single isomer, unassigned) | 100 to 1000 nM |
| CCn1c(-c2cccnc2[C@H](C)OC)c2c3cc(ccc31)-c1cc(O)cc(c1)C[C@H](NC(=O)[C@H](C(C)C)N(C)C(=O)c1ccc([C@@H]3CN3)nc1)C(=O)N1CCC[C@H](N1)C(=O)OCC(C)(C)C2 | 10 to 100 nM |
| CCn1c(-c2cccnc2[C@H](C)OC)c2c3cc(ccc31)-c1cccc(c1)C[C@H](NC(=O)[C@H](C(C)C)N(C)C(=O)[C@H]1CC[C@H](N=C=NCc3ccccc3OC)C1)C(=O)N1CCC[C@H](N1)C(=O)OCC(C)(C)C2 | 100 to 1000 nM |
| CCn1c(-c2cccnc2[C@H](C)OC)c2c3cc(ccc31)-c1csc(n1)C[C@H](NC(=O)[C@H](C(C)C)N(C)C(=O)N(C)CC1CN(C(=O)[C@H]3CN3)C1)C(=O)N1CCC[C@H](N1)C(=O)OCC(C)(C)C2 (atropisomer, axis not shown) | 10 to 100 nM |
| CCn1c(-c2cccnc2[C@H](C)OC)c2c3cc(ccc31)-c1cc(O)cc(c1)C[C@H](NC(=O)[C@H](C(C)C)N(C)C(=O)[C@H]1C[C@@H]3N[C@@H]3C1)C(=O)N1CCC[C@H](N1)C(=O)OCC(C)(C)C2 (atropisomer, axis not shown) | 100 to 1000 nM |

Problem: Please report the recorded IC50 for CCn1c(-c2cccnc2[C@H](C)OC)c2c3cc(ccc31)-c1cc(O)cc(c1)C[C@H](NC(=O)[C@H](C(C)C)N(C)C(=O)[C@@H]1CCN(C(=O)[C@@H]3CN3)[C@@H]1C)C(=O)N1CCC[C@H](N1)C(=O)OCC(C)(C)C2 (atropisomer, axis not shown) .
Result: 10 to 100 nM

Problem: Next compound up: CCn1c(-c2cccnc2[C@H](C)OC)c2c3cc(ccc31)-c1cc(O)cc(c1)C[C@H](NC(=O)[C@H](C(C)C)N(C)C(=O)[C@H]1CCN(C(=O)[C@H]3CN3)C1)C(=O)N1CCC[C@H](N1)C(=O)OCC(C)(C)C2 (single isomer, unassigned) [Example 43A]
Result: < 10 nM

Problem: Field entry: "CCn1c(-c2cccnc2[C@H](C)OC)c2c3cc(ccc31)-c1cc(O)cc(c1)C[C@H](NC(=O)[C@H](C(C)C)N1CC[C@]3(CCN(C(=O)[C@H]4CN4)C3)C1=O)C(=O)N1CCC[C@H](N1)C(=O)OCC(C)(C)C2"
Result: < 10 nM

---

Listed compounds paired with reported pIC50
# target: KRAS G12S (Homo sapiens, UniProt P01116+P62937, G12S)
# Sequence (P01116 1-169 isoform P01116-2 G12S limits assumed): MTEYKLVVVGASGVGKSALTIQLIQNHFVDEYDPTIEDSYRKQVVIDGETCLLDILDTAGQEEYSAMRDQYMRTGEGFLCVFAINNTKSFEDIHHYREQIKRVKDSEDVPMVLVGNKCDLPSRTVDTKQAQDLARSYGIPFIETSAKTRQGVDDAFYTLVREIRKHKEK
# Sequence (P62937 whole entry): as the sequence (P62937 whole entry) above
# assay.comment: Disruption of BRAF RBD interaction with Ras (FRET / MOA assay, with Cyclophilin A)
# Format: biochemical
# setup.conditions: read-out: KRAS G12S FRET data, IC50
pIC50: −log10 of the molar value.

Below, 2 compounds whose answers are already recorded.
| compound | pIC50 |
| --- | --- |
| CCn1c(-c2cccnc2[C@H](C)OC)c2c3cc(ccc31)-c1csc(n1)C[C@H](NC(=O)[C@H](C(C)C)N(C)C(=O)N1CCC[C@@H](N(C)C)C1)C(=O)N1CCC[C@H](N1)C(=O)OCC(C)(C)C2 (atropisomer, axis not shown) | 6.00 to 7.00 |
| CCn1c(-c2cnccc2COC)c2c3cc(ccc31)-c1cc(O)cc(c1)C[C@H](NC(=O)[C@H](C(C)C)N(C)C(=O)[C@H]1CCN(C(=O)C3COC3)C1)C(=O)N1CCC[C@H](N1)C(=O)OCC(C)(C)C2 | 6.00 to 7.00 |

Problem: Requested read-out: pIC50. Entry: C=CC(=O)N1CC[C@]2(C1)OCN(C(=O)N(C)[C@H](C(=O)N[C@H]1Cc3cccc(n3)-c3ccc4c(c3)c(c(-c3cccnc3[C@H](C)OC)n4CC)CC(C)(C)COC(=O)[C@@H]3CCCN(N3)C1=O)C(C)C)C2=O (atropisomer, axis not shown)
Result: 5.00 to 6.00

Problem: Do the same for "CCn1c(-c2cccnc2[C@H](C)OC)c2c3cc(ccc31)-c1csc(n1)C[C@H](NC(=O)[C@H](C(C)C)N(C)C(=O)[C@@H]1OCC[C@@H]1C)C(=O)N1CCC[C@H](N1)C(=O)OCC(C)(C)C2" please
Result: 5.00 to 6.00

Problem: Okay, and "CCn1c(-c2cccnc2[C@H](C)OC)c2c3cc(ccc31)-c1csc(n1)C[C@H](NC(=O)[C@H](C(C)C)N(C)C(=O)N1CC(C)(OC)C1)C(=O)N1CCC[C@H](N1)C(=O)OCC(C)(C)C2" ?
Result: 5.00 to 6.00

Problem: And then "CCn1c(-c2cccnc2[C@H](C)OC)c2c3cc(ccc31)-c1cc(O)cc(c1)C[C@H](NC(=O)[C@H](C(C)C)N(C)C(=O)[C@H]1CCN(C(=O)OC(C)(C)C)C1)C(=O)N1CCC[C@H](N1)C(=O)OCC(C)(C)C2" , what is it?
Result: 6.00 to 7.00

Problem: What would you report for "CCn1c(-c2cccnc2[C@H](C)OC)c2c3cc(ccc31)-c1csc(n1)C[C@H](NC(=O)[C@H](C(C)C)N(C)C(=O)[C@H]1CCN(C(=O)C(C)(C)N(C)C)C1)C(=O)N1CCC[C@H](N1)C(=O)OCC(C)(C)C2" ?
Result: 5.00 to 6.00

Problem: "C=CS(=O)(=O)N1CC[C@H](C(=O)N(C)[C@H](C(=O)N[C@H]2Cc3cccc(c3)-c3ccc4c(c3)c(c(-c3cncnc3)n4CC)CC(C)(C)COC(=O)[C@@H]3CCCN(N3)C2=O)C(C)C)C1" ?
Result: < 5.00

---

# target: KRAS G12V (Homo sapiens, UniProt P01116+P62937, G12V)
# Sequence (P01116 1-169 isoform P01116-2 G12V limits assumed): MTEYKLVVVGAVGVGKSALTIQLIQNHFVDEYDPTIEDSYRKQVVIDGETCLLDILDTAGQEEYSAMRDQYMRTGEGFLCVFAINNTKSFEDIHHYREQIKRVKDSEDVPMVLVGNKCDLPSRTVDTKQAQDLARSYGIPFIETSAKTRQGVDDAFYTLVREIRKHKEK
# Sequence (P62937 whole entry): as the sequence (P62937 whole entry) above
# assay.comment: Disruption of BRAF RBD interaction with Ras (FRET / MOA assay, with Cyclophilin A)
# Assay type: biochemical
# setup.conditions: KRAS G12V; read-out: KRAS G12V FRET data IC50
# reported IC50; entries follow

Take a look at these entries with their results.
| compound | observed |
| --- | --- |
| CCn1c(-c2cccnc2[C@H](C)OC)c2c3cc(ccc31)-c1csc(n1)C[C@H](NC(=O)[C@H](C(C)C)N(C)C(=O)N1CC[C@H]1C(=O)NC)C(=O)N1CC(C)C[C@H](N1)C(=O)OCC(C)(C)C2 (stereo partly drawn) | 1 to 10 µM |
| C=CC(=O)N1CC[C@H](C(=O)N(C)[C@H](C(=O)N[C@H]2Cc3cc(O)cc(c3)-c3ccc4c(c3)c(c(C3=C(COC)COCC3)n4CC)CC(C)(C)COC(=O)[C@@H]3CCCN(N3)C2=O)C(C)C)C1 | 0.1 to 1 µM |
| CCn1c(-c2cccnc2[C@H](C)OC)c2c3cc(ccc31)-c1csc(n1)C[C@H](NC(=O)[C@H](C(C)C)N(C)C(=O)N1CCCC13CCN(C)CC3)C(=O)N1CCC[C@H](N1)C(=O)OCC(C)(C)C2 | 0.1 to 1 µM |
| C=CC(=O)N1CC[C@H](C(=O)N(C)[C@H](C(=O)N[C@H]2Cc3cc(O)cc(c3)-c3ccc4c(c3)c(c(-c3cncc(CCN(C)C)c3)n4CC)CC(C)(C)COC(=O)[C@@H]3CCCN(N3)C2=O)C(C)C)C1 | 1 to 10 µM |
| CCn1c(-c2cccnc2[C@H](C)OC)c2c3cc(ccc31)-c1cc(O)cc(c1)C[C@H](NC(=O)[C@H](C(C)C)N(C)C(=O)C1(CO)CC1)C(=O)N1CCC[C@H](N1)C(=O)OCC(C)(C)C2 | 0.1 to 1 µM |

Shifting focus to the compound that follows.
Problem: What does the data say about its IC50? Entry: "CCn1c(-c2cccnc2[C@H](C)OC)c2c3cc(ccc31)-c1cc(O)cc(c1)C[C@H](NC(=O)[C@H](C(C)C)N(C)C(=O)[C@H]1CCN(C(=O)OC(C)(C)C)C1)C(=O)N1CCC[C@H](N1)C(=O)OCC(C)(C)C2"
Result: 0.01 to 0.1 µM

---

# target: KRAS WT (Homo sapiens, UniProt P01116+P62937)
# Sequence (P01116 1-169 isoform P01116-2 limits assumed): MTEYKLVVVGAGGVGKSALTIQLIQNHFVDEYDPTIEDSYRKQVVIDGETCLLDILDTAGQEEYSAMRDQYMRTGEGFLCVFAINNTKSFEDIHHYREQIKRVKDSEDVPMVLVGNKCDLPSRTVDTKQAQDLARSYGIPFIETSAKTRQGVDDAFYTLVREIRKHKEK
# Sequence (P62937 whole entry): as the sequence (P62937 whole entry) above
# assay.comment: Disruption of BRAF RBD interaction with Ras (FRET / MOA assay, with Cyclophilin A)
# Type: biochemical
# setup.conditions: KRAS WT; read-out: KRAS WT FRET data IC50
pIC50: −log10 of the molar value.
property.measured: pIC50

Recorded pIC50, per entry:
| compound | pIC50 |
| --- | --- |
| CCn1c(-c2cnccc2COC)c2c3cc(ccc31)-c1cc(O)cc(c1)C[C@H](NC(=O)[C@H](C(C)C)N(C)C(=O)OC1CNC1)C(=O)N1CCC[C@H](N1)C(=O)OCC(C)(C)C2 | 6.00 to 7.00 |
| C=CC(=O)N1CCC(C(=O)N(C)[C@H](C(=O)N[C@H]2Cc3cc(O)cc(c3)-c3ccc4c(c3)c(c(-c3ccccc3CN(C)C)n4CC)CC(C)(C)COC(=O)[C@@H]3CCCN(N3)C2=O)C(C)C)CC1 | 5.00 to 6.00 |
| C=CC(=O)N1CCOC2(CCN(C(=O)N(C)[C@H](C(=O)N[C@H]3Cc4cc(CF)cc(c4)-c4ccc5c(c4)c(c(-c4cccnc4[C@H](C)OC)n5CC(F)(F)F)CC(C)(C)COC(=O)C4CCCN(N4)C3=O)C(C)C)CC2)C1 (stereo partly drawn) | 7.00 to 8.00 |
| CCn1c(-c2cccnc2[C@H](C)OC)c2c3cc(ccc31)-c1cc(O)cc(c1)C[C@H](NC(=O)[C@H](C(C)C)N(C)C(=O)[C@H]1CCN(C(=O)[C@@]3(C)CCCN3)C1)C(=O)N1CCC[C@H](N1)C(=O)OCC(C)(C)C2 | 7.00 to 8.00 |
| CCn1c(-c2cccnc2[C@H](C)OC)c2c3cc(ccc31)-c1csc(n1)C[C@H](NC(=O)[C@H](C(C)C)N(C)C(=O)N1CCOC[C@@H]1c1ccccc1)C(=O)N1CCC[C@H](N1)C(=O)OCC(C)(C)C2 | 5.00 to 6.00 |

Problem: Request the reported pIC50 associated with CCn1c(-c2cccnc2[C@H](C)OC)c2c3cc(ccc31)-c1csc(n1)C[C@H](NC(=O)[C@H](C(C)C)N(C)C(=O)N1CCN(C(=O)C3(N(C)C)CC3)CC1)C(=O)N1CCC[C@H](N1)C(=O)OCC(C)(C)C2 (atropisomer, axis not shown)
Result: 7.00 to 8.00

Problem: Queued: "CCn1c(-c2cccnc2[C@H](C)OC)c2c3cc(ccc31)-c1csc(n1)C[C@H](NC(=O)[C@H](C1CCCC1)N(C)C(=O)N1CCN(C)CC1)C(=O)N1CCC[C@H](N1)C(=O)OCC(C)(C)C2"
Result: 6.00 to 7.00

Problem: // next record "CCn1c(-c2cccnc2[C@H](C)OC)c2c3cc(ccc31)-c1csc(n1)C[C@H](NC(=O)[C@H](C(C)C)N(C)C(=O)N1CC[C@@H]1C(=O)NC)C(=O)N1CCC[C@H](N1)C(=O)OCC(C)(C)C2"
Result: 5.00 to 6.00

Problem: Next record, please: "CCC(=O)N1CC[C@H](C(=O)N(C)[C@H](C(=O)N[C@H]2Cc3cc(O)cc(c3)-c3ccc4c(c3)c(c(-c3ccccc3CCOC)n4CC)CC(C)(C)COC(=O)[C@@H]3CCCN(N3)C2=O)C(C)C)C1"
Result: 5.00 to 6.00
